molecular target: human CB1 (hCB1) receptor (Homo sapiens); construct: expressed in transfected cells; host or cells: CHO-K1; test: Inhibition of forskolin-activated cAMP production upon activation of hCB1 (HTRF), CHO-K1 cells; format: cell-based; details: hCB1-CHO-K1 cells, forskolin-activated cAMP, pEC50=-log(EC50)
Sequence (P21554 whole entry): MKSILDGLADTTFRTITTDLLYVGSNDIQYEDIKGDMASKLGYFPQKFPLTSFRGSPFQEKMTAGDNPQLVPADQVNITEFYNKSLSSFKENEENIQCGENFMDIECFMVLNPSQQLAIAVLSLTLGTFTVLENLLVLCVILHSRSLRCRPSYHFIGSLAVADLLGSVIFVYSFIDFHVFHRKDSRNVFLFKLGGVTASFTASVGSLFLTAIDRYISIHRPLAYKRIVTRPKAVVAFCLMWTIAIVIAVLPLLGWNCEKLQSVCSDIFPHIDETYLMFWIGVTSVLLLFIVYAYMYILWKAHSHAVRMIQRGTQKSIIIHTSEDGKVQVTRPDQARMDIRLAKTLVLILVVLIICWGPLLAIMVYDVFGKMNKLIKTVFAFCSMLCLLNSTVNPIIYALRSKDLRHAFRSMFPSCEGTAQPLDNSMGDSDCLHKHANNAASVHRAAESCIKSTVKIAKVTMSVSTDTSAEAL
parameter_measured: CB1 pEC50
Output spec: single numeric token, no unit.

The cases that follow already have their CB1 pEC50 on record.
COCCCNc1cc(S(=O)(=O)c2ccc3c(c2)nc(C(C)(C)C)n3CC2CCOCC2)ccn1 [Co. No. 126]: 6.02
CC(C)(C)c1nc2cc(S(=O)(=O)c3ccnc(OCCCO)c3)ccc2n1CC1CCOCC1 [Co. No. 152]: 5.44
COCCCOc1cc(S(=O)(=O)c2ccc3c(c2)nc(C(C)(C)C)n3CC2CCOCC2)ccn1 [Co. No. 151]: 5.41

Attention now turns to another entry.
Query :: Any idea what CB1 pEC50 was measured for COCCOc1cc(S(=O)(=O)c2ccc3c(c2)nc(C(C)(C)C)n3CC2CCOCC2)ccn1 [Co. No. 150] ?
Result :: 6.09

###

biological target: human CB2 (hCB2) receptor (Homo sapiens, UniProt P34972); construct: expressed in transfected cells; host or cells: CHO-K1; assay: Inhibition of forskolin-activated cAMP production upon activation of hCB2 (HTRF), CHO-K1 cells; format: cell-based; conditions: Table C-1; selectivity hCB2 over hCB1
Sequence (P34972 whole entry): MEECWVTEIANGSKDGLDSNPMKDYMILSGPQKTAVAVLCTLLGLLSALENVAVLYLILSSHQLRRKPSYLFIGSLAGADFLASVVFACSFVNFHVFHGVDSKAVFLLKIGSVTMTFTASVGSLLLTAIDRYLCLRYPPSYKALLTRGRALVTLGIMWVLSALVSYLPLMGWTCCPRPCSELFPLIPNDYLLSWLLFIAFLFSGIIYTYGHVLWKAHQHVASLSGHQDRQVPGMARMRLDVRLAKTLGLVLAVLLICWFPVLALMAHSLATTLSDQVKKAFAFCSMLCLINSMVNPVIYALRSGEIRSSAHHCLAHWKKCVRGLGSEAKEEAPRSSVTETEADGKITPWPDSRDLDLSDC
parameter_measured: ratio CB2 agonism over CB1 agonism

Answered examples (4):
CC(=O)NCCCCc1cc(S(=O)(=O)c2ccc3c(c2)nc(C(C)(C)C)n3CC2CCOCC2)ccn1: >1792
CC(=O)Nc1cc(S(=O)(=O)c2ccc3c(c2)nc(C(C)(C)C)n3CC2CCOCC2)ccn1: 1758
CO[C@H]1CC[C@@H](Cn2c(C(C)(C)C)nc3cc(S(=O)(=O)c4ccnc(F)c4)ccc32)CC1: >27542
CC(C)(C)Cn1c(C(C)(C)C)nc2cc(S(=O)(=O)c3ccnc(F)c3)ccc21: 6026

Query :: Suppose we examine the compound CC(C)(C)c1nc2cc(S(=O)(=O)c3ccnc(OCCCN)c3)ccc2n1CC1CCOCC1 ; what ratio CB2 agonism over CB1 agonism value has been reported?
Result :: >631

Query :: And what about the compound CC(C)(C)c1nc2cc(S(=O)(=O)c3cncc(C(N)=O)c3)ccc2n1CC1CCOCC1 ?
Result :: 64

Query :: Try this compound next: C=Cc1cc(S(=O)(=O)c2ccc3c(c2)nc(C(C)(C)C)n3CC2CCOCC2)ccn1
Result :: 1413

###

Where a name gives a salt, the structure may show the parent alone.
Binary label based on melting point with cut-off 200 °C: below gives 1, not below gives -1.

CC(C)(C)c1nc2cc(S(=O)(=O)c3cncc(C(N)=O)c3)ccc2n1CC1CCOCC1 [Co. No. 44]: -1
Cn1cc(S(=O)(=O)c2ccc3c(c2)nc(C(C)(C)C)n3CC2CCOCC2)ccc1=O [Co. No. 28]: 1
CO[C@H]1CC[C@@H](Cn2c(C(C)(C)C)nc3cc(S(=O)(=O)c4ccnc(F)c4)ccc32)CC1 [Co. No. 162]: 1
CC(C)(C)c1nc2cc(S(=O)(=O)c3ccc(C(=O)N4CCOCC4)s3)ccc2n1CC1CCOCC1 [Co. No. 79]: 1
CC(C)(C)c1nc2cc(S(=O)(=O)c3ccnc(F)c3)ccc2n1CC1CCC(=O)CC1 [Co. No. 134]: 1
CC(=O)NCCc1cc(S(=O)(=O)c2ccc3c(c2)nc(C(C)(C)C)n3CC2CCOCC2)ccn1 [Co. No. 158]: 1
CC(C)(C)c1nc2cc(S(=O)(=O)c3ccc(C(=O)N4CCCC4)o3)ccc2n1CC1CCOCC1 (as salt: HCl) [Co. No. 74]: 1
CC(C)(C)c1nc2cc(S(=O)(=O)c3cc(Cl)cc(Cl)n3)ccc2n1CC1CCOCC1 [Co. No. 10]: 1

Query :: Quick check: melting point of CC(C)(C)c1nc2cc(S(=O)(=O)c3ccc(C(N)=O)s3)ccc2n1CC1CCOCC1 [Co. No. 73] under 200 °C?
Result :: -1
